Just for reference, patent US20240368139A1 is where these values come from.

Exercise: state measured IC50 for each of the compounds provided.
TEST_SYSTEM: human EHMT1 982-1266 (Homo sapiens)
Sequence (Q9H9B1 982-1266): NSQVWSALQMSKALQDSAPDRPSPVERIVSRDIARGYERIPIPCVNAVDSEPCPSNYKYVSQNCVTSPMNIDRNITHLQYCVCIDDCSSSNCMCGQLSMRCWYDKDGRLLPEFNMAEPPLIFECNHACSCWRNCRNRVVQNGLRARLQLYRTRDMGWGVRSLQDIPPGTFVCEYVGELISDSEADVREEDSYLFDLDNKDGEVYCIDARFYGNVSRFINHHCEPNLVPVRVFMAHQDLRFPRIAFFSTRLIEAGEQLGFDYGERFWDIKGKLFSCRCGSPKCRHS
ASSAY: EHMT1 enzyme assay on histone peptide substrate (3H-SAM SPA)
APPLIED_CONDITIONS: EHMT1 IC50, recombinant human EHMT1 982-1266, histone peptide substrate

Completed entries (count: 3):
[2H]C([2H])([2H])Nc1cc(C)nc(Nc2cc3c(c(C4=CCN(C)CCC4)c2)OCCO3)n1; < 100 nM
CNc1cc(C)nc(Nc2cc3c(c(C4=CCNC(C)CC4)c2Cl)OCCO3)n1 (single isomer, unassigned) [Compound 161-a]; 500 to 2000 nM
CNc1cc(C)nc(Nc2cc3c(c(C4=CCN(C(C)C)CCC4)c2F)OCC3)n1; < 100 nM

Below is a list of compounds. For each, state its recorded IC50.
1. CNc1cc(C)nc(Nc2cc3c(c(N4CCCN(C)CC4)c2)OCC3)n1
2. Cc1cc(NCC2CCOCC2)nc(Nc2cc3c(c(C4=CCN(C)CCC4)c2)OCC3)n1
3. CNc1cc(C)nc(Nc2cc3c(c(C4=CCN(C)CCC4)c2F)OCCC3(F)F)n1
4. CCc1c(C)nc(Nc2cc3c(c(C4=CCN(C)CCC4)c2F)OCC3)nc1NC
5. CNc1cc(C)nc(Nc2cc3c(c(C4=CCNC(C)CC4)c2F)OCCC3)n1 (single isomer, unassigned) [Compound 164]
6. CNc1nc(Nc2cc3c(c(C4=CCN(C)CCC4)c2)OCC3)nc(C)c1C

a:
["500 to 2000 nM", "< 100 nM", "< 100 nM", "< 100 nM", "< 100 nM", "< 100 nM"]

Please report IC50 for every entry that follows.
1. CNc1cc(C)nc(Nc2cc3c(c(C4=CCNCCC4)c2F)OCCC3)n1
2. CNc1cc(C)nc(Nc2cc3c(c(C4=CCNCC(O)C4)c2Cl)OCC3)n1 (single isomer, unassigned)
3. CNc1cc(C)nc(Nc2cc3c(c(C4=CCNCCC4)c2C)OCC3)n1
4. Cc1cc(NC2CCCCC2)nc(Nc2cc3c(c(OCCCN4CCCC4)c2)OCC3)n1

a:
< 100 nM
< 100 nM
< 100 nM
500 to 2000 nM

* * *

Tested on: H3K9me2 in HCT116 cells
ASSAY: HCT116 H3K9me2 in-cell western assay
Assay type: cell-based
APPLIED_CONDITIONS: Homo sapiens, HCT-116, 72 h, HCT116 cells, 72 hours incubation; read-out: H3K9me2 ICW IC50
pIC50: −log10 of the molar value.
METRIC: pIC50

CNc1cc(C)nc(Nc2cc3c(c(C4=CCNCCC4)c2F)OCCC3(F)F)n1 [Compound 174]; > 7.00
CNc1cc(C)nc(Nc2cc3c(c(C4=CC(C)N(C)CCC4)c2F)OCC3)n1 (stereo not shown) [Compound 200]; 6.30 to 7.00
[2H]Cc1cc(NCC([2H])([2H])[2H])nc(Nc2cc3c(c(C4=CCNCCC4)c2F)OCC3)n1 [Compound 262]; > 7.00

Look up pIC50 for the entries below, preserving their order.
1. CNc1cc(C)nc(Nc2cc3c(c([C@H]4C[C@H]5CNC[C@H]5C4)c2)OCC3)n1 [Compound 157]
2. CNc1cc(C)nc(Nc2cc3c(c(C4=CCNCCC4)c2Cl)OCO3)n1 [Compound 160]
3. [2H]Cc1cc(NC)nc(Nc2cc3c(c(C4=CCNCCC4)c2)OCCC3)n1 [Compound 248]
4. CNc1cc(Nc2cc3c(c(C4=CCNCCC4)c2F)OCO3)nc(C)c1F [Compound 211]
5. [2H]Cc1cc(NC)nc(Nc2cc3c(c(C4=CCNCCC4)c2)OCO3)n1 [Compound 269]
6. CNc1cc(C)nc(Nc2cc3c(c(C4CCCNCC4)c2)OCCO3)n1 (stereo not shown) [Compound 348]

a:
["6.30 to 7.00", "> 7.00", "> 7.00", "> 7.00", "> 7.00", "6.30 to 7.00"]
